Target: sLFA-1/ICAM-1 (Homo sapiens, UniProt P05107+P20701, DEL701-769)
Sequence (P20701 26-1090 limits assumed, stated change not applied): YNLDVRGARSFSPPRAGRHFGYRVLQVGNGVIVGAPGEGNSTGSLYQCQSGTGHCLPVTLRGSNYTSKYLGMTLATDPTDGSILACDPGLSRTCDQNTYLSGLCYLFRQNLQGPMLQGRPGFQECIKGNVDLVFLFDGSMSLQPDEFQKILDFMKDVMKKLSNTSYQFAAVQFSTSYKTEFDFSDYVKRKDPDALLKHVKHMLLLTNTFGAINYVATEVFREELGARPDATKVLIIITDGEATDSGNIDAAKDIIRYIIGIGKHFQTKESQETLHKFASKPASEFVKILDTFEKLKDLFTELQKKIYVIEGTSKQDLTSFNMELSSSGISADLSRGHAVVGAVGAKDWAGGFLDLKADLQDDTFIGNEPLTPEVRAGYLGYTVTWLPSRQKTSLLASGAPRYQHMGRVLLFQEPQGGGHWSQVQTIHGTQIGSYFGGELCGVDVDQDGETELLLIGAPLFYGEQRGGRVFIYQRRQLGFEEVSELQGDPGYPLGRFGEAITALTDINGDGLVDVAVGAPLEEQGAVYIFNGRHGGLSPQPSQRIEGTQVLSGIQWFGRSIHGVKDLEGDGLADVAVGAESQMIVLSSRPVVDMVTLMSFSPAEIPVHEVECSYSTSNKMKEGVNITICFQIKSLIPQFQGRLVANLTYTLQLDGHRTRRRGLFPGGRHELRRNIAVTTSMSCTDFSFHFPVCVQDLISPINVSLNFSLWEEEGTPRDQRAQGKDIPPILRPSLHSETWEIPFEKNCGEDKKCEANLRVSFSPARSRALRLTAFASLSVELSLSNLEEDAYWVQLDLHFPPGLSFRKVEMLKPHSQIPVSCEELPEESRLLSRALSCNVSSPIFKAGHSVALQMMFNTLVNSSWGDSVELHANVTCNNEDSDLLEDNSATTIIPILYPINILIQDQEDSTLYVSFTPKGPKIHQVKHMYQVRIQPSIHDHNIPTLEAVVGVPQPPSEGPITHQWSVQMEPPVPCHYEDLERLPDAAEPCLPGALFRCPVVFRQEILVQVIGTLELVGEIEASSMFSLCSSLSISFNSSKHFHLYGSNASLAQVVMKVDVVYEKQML
Sequence (P05107 23-700 limits assumed, stated change not applied): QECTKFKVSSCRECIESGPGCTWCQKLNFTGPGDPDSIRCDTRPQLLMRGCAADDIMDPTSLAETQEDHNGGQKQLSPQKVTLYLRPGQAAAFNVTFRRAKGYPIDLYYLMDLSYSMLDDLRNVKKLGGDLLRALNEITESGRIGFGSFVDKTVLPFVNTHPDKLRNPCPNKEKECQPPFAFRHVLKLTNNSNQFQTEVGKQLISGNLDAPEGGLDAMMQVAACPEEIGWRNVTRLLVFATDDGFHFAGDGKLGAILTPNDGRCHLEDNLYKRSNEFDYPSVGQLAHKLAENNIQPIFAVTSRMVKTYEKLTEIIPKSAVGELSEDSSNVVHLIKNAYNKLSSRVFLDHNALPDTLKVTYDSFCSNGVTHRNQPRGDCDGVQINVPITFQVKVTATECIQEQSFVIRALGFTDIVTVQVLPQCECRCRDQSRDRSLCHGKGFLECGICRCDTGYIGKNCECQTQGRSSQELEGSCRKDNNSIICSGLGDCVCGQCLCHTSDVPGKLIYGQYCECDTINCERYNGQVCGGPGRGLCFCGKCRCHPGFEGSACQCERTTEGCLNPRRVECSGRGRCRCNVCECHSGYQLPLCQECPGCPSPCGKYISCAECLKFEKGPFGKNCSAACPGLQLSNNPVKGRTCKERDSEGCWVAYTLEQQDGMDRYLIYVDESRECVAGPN
Assay: sLFA-1/ICAM-1 ELISA
Details: sLFA-1 coated plates, 5dICAM-Fc binding, read-out: LFA/ICAM (IC50)
pIC50: −log10 of the molar value.
measurementKind: pIC50

1) O=C(Cc1cccc(O)c1)Nc1ncc(C(=O)N[C@@H](CNC(=O)c2cccs2)C(=O)O)s1    7.07
2) Cc1nc(NC(=O)CCc2cccc(O)c2)sc1C(=O)N[C@@H](CNC(=O)c1cc(O)cc(O)c1)C(=O)O    7.36
3) Cc1nc(NC(=O)Cc2cccc(O)c2)sc1C(=O)N[C@@H](CNC(=O)c1ccccc1)C(=O)O    8.22
4) CCc1cc(C(=O)NCc2cccc3[nH]ncc23)sc1C(=O)N[C@@H](CNC(=O)c1cccs1)C(=O)O    7.68
5) O=C(NC[C@H](NC(=O)c1sc(C(=O)NCc2cccc(O)c2)cc1-c1ccccc1)C(=O)O)c1cccs1    5.81
6) O=C1Cc2c(CNC(=O)c3cc(C(F)(F)F)c(C(=O)N[C@@H](CNC(=O)c4cccs4)C(=O)O)s3)cccc2N1    6.79
7) Cc1nc(NC(=O)Cc2cccc3[nH]ncc23)sc1C(=O)N[C@@H](CNC(=O)c1cccs1)C(=O)O    8.10
8) O=C(Cc1cccc(O)c1)Nc1nc(Cl)c(C(=O)N[C@@H](CNC(=O)c2cccs2)C(=O)O)s1    8.15
9) Cc1nc(OCCCc2cccc(O)c2)sc1C(=O)N[C@@H](CNC(=O)c1cccs1)C(=O)O    7.28
10) Cc1nc(NC(=O)CCc2cccc(O)c2)sc1C(=O)N[C@@H](CNC(=O)c1cccs1)C(=O)O    7.05
11) Cc1cc(C(=O)NCc2cccc3[nH]ccc23)sc1C(=O)N[C@@H](CNC(=O)c1cccs1)C(=O)O    6.29
12) O=C(NC[C@H](NC(=O)c1sc(C(=O)NCc2cccc(O)c2)cc1Br)C(=O)O)c1cccs1    8.15
13) Cc1cc(C(=O)NCc2cccc(O)c2)sc1C(=O)N[C@@H](CNC(=O)c1cnccn1)C(=O)O    7.68
14) O=C(Cc1cccc2[nH]ncc12)Nc1nc(C(F)(F)F)c(C(=O)N[C@@H](CNC(=O)c2cccs2)C(=O)O)s1    7.77
15) Cc1cc(C(=O)NCc2cccc(O)c2)sc1C(=O)N[C@@H](CNC(=O)c1cnc(O)cn1)C(=O)O    6.12
